The measurements presented in this section are drawn from paper PMC6316490.

Tested on: human malignant melanoma cell line (A-375)
Assay explanation: Cytotoxicity in A-375 cells, CellTiter-Glo ATP viability, 48-h incubation
Format: cell-based
Applied conditions: SAR discussion, A-375 cells
Metric: Cytotoxic activity in A-375 cells (in words)

>>> df
                            input_smiles  test_value
0  COc1ccc(C/C(=N\O)C(=O)Nc2ccccn2)cc1Br    inactive
1    COc1ccc(C/C(=N\O)C(=O)Nc2ccccn2)cc1    inactive
2  COc1ccc(C/C(=N\O)C(=O)Nc2ccccn2)cc1Cl    inactive
